Molecular target: Muscarinic acetylcholine receptor M3 (Homo sapiens, UniProt P20309)
Sequence (P20309 whole entry): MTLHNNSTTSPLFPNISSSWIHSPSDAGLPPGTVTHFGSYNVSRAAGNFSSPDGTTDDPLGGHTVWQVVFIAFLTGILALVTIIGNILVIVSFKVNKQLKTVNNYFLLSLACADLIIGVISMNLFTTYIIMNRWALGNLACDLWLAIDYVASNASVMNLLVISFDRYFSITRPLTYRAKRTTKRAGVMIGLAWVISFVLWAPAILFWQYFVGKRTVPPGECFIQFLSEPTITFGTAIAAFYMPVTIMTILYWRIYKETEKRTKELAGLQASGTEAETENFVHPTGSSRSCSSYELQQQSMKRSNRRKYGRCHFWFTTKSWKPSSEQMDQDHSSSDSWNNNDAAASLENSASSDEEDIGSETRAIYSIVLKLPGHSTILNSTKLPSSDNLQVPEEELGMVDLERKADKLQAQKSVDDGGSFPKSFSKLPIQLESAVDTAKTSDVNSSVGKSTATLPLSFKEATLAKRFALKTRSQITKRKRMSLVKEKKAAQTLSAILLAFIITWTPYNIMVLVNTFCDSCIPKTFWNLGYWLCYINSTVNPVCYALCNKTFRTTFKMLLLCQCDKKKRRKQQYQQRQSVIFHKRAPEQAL
Test: Agonist activity at human muscarinic M3 receptor expressed in CHO cells assessed as effect on calcium mobilization by FLIPR assay
Type: functional, cell-based
endpoint: pEC50
Remember, pEC50 is on a log scale: it is -log10 of the molar concentration.

Below, each entry is followed by its recorded pEC50 result.
Qu. Need pEC50 of CCO[C@H]1CC[C@](C)(N2CCC(N3C(=O)Cc4ccc(C)cc43)CC2)CC1 , thanks.
Ans. 6.90

Qu. Need pEC50 of CCCO[C@H]1CC[C@](C)(N2CCC(N3C(=O)Cc4ccc(C)cc43)CC2)CC1 , thanks.
Ans. 7.20

Switching to the query record.
Qu. Need pEC50 of CCCO[C@H]1CC[C@](C)(N2CCC(n3c(=O)[nH]c4cc(F)c(C)cc43)CC2)CC1 , thanks.
Ans. 7.10
